pKi by entry:
- assayed.system: Serotonin transporter (Homo sapiens, UniProt P31645)
- Sequence (P31645 whole entry): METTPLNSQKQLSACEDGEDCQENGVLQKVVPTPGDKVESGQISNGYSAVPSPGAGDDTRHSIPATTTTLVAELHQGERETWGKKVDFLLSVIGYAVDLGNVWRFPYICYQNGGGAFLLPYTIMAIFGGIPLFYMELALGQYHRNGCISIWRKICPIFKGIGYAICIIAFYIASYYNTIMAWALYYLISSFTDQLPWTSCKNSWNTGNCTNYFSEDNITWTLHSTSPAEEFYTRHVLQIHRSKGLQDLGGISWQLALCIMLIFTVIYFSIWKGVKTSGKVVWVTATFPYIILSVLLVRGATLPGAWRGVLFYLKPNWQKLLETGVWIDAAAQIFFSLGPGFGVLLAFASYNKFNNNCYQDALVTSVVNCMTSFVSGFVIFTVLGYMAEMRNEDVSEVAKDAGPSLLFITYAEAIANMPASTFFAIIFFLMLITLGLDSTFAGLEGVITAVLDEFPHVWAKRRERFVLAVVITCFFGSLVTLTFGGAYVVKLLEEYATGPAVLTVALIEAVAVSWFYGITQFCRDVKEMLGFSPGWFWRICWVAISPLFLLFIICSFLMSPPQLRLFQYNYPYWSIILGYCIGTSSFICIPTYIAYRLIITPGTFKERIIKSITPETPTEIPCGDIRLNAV
- assay.method.text: Receptor binding, serotonin transporter
pKi: −log10 of the molar value.
metric.name: pKi

molecule: CN1CCc2c(c3cccc4c3n2Cc2ccccc2O4)C1 [Compound 13b]
assayed.system: Serotonin transporter (Homo sapiens, UniProt P31645)
metric.name: pKi
readout.number: 6.38
//
molecule: CN1CCc2c(c3cccc4c3n2Cc2ccccc2C4)C1 [Compound 13a]
assayed.system: Serotonin transporter (Homo sapiens, UniProt P31645)
metric.name: pKi
readout.number: 5.66

----------
Target chain: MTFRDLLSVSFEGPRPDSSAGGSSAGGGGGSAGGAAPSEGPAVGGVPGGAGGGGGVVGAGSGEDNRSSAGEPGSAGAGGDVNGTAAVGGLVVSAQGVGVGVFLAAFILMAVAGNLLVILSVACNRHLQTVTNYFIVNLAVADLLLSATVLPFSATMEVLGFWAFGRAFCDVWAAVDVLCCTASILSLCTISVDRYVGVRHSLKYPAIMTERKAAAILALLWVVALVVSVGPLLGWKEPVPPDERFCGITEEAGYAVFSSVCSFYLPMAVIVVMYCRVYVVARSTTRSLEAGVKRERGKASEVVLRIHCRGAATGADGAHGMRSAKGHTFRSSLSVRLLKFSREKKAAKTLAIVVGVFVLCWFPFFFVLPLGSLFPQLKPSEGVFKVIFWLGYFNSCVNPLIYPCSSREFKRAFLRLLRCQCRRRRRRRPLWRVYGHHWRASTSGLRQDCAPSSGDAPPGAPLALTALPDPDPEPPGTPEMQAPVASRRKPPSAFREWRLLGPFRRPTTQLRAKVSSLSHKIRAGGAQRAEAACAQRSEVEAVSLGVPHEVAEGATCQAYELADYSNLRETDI

compound: CN1CCc2c(c3cccc4c3n2Cc2ccccc2O4)C1 [Compound 13b]
Ki, µM: 5.03
//
compound: CN1CCc2c(c3cccc4c3n2-c2ccccc2CC4)C1 [Compound 6a, reference compound]
Ki, µM: 0.595
